Please respond with reported pIC50 for every item in the list.
Target: human NPC1L1 (Homo sapiens)
Sequence (Q9UHC9 22-1359): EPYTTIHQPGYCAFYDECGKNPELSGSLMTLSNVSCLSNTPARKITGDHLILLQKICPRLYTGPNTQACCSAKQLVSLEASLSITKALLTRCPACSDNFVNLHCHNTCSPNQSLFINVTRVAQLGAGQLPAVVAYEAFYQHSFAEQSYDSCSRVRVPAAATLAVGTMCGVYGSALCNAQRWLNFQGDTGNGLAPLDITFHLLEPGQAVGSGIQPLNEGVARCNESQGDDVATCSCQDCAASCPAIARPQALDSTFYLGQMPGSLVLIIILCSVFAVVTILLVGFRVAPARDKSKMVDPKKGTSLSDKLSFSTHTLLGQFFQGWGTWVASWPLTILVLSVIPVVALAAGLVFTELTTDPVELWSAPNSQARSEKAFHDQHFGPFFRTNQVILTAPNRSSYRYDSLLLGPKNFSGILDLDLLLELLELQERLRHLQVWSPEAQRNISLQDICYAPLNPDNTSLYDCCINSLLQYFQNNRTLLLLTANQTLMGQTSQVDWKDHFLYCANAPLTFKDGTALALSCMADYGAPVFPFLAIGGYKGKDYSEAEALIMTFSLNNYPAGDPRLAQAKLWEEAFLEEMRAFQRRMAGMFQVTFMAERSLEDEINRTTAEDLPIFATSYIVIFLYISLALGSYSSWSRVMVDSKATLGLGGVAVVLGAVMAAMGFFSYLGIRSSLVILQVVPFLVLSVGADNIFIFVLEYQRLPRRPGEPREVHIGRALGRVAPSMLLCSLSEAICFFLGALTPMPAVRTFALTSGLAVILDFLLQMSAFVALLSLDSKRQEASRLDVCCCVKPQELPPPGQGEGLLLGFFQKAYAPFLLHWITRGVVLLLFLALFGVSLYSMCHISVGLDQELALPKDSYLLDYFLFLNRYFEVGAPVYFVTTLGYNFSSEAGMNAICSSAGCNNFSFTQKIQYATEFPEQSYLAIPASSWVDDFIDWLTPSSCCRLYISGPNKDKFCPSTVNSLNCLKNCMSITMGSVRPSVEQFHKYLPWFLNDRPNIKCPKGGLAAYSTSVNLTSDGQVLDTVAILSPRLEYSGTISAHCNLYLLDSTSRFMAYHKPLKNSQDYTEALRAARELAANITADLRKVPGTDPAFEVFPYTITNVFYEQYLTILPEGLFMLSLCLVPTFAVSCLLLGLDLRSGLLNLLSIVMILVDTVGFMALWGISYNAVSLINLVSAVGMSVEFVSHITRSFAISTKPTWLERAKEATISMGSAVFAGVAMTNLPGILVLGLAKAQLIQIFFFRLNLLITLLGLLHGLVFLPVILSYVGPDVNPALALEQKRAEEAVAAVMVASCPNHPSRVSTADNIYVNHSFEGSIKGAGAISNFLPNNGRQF
Assay: 3H-cholesterol uptake inhibition in hNPC1L1/MDCKII cells
Answers are plain numbers, as −log10 of the molar value.

Molecule	Property Name	Measurement
O=C1[C@H](CC[C@H](O)c2ccc(F)cc2)[C@@H](c2ccc(O)cc2)N1c1ccc(F)cc1 [Eze, ezetimibe]	pIC50	5.41

Now turn to the next molecule.
The molecule listed as O=C(O)[C@H]1O[C@@H](Oc2ccc([C@@H]3[C@@H](CC[C@H](O)c4ccc(F)cc4)C(=O)N3c3ccc(F)cc3)cc2)[C@H](O)[C@@H](O)[C@@H]1O [Eze-Glu, ezetimibe-glucuronide] has a reported pIC50 of 6.17
